Listed here are compounds together with their documented Size.
assay: LNP size and polydispersity index (PDI) by dynamic light scattering; type: physicochemical; details: LNP with cirRNA (SEQ ID NO: 1); in nm (unit assumed)

>  <compound>
CCCCCCCCCC(=O)OCCCCCCCN(CCCCCCCOC(=O)CCCCCCCCC)CCOC(=O)NCCN1CCN(C)CC1

>  <Size>
61.85

$$$$
>  <compound>
CCCCCCCC/C=C\CCCCCCCCN(CCCCCCCCOC(=O)C(CCCCCC)CCCCCCCC)CCOC(=O)NCCN1CCN(C)CC1 (stereo not shown)

>  <Size>
76.43

$$$$
>  <compound>
CCCCC/C=C\CCOC(=O)CCCCCN(CCCCCCCCOC(=O)C(CCCCCC)CCCCCCCC)CCOC(=O)NCCCN(CC)CC (stereo not shown)

>  <Size>
122.7

$$$$
>  <compound>
CCCCCCCCCC(=O)OCCCCCCCCN(CCCCCCCCOC(=O)CCCCCCCCC)CCOC(=O)NCCN1CCCC1

>  <Size>
86.68

$$$$
>  <compound>
CCCCCCCCCCCOC(=O)CCCCCN(CCCCCCCC(=O)OC(CCCCCCCC)CCCCCCCC)CCOC(=O)NCCN(C)C

>  <Size>
97.72

$$$$
>  <compound>
CCCCCCCOC(=O)CCCCCCCCCN(CCCCCCCCCC(=O)OCCCCCCC)CCOC(=O)NCCN1CCCC1

>  <Size>
142.1

$$$$
>  <compound>
CCCCCCCCCCC(CCCCCCCC)COC(=O)CCCCCN(CCCCCC(=O)OCC(CCCCCCCC)CCCCCCCCCC)CCCOC(=O)NCCCN(CC)CC (stereo not shown)

>  <Size>
118.4

$$$$

* * *

Listed here are molecules together with their documented Encapsulation Efficiency %.
assay: RNA encapsulation efficacy by Quant-IT Ribogreen kit; format: physicochemical; details: LNP with cirRNA (SEQ ID NO: 1)
measured.attribute: Encapsulation Efficiency % (%)

>  <molecule>
CCCCC/C=C\C/C=C\CCCCCCCCN(CCCCCCCC(=O)OC(CCCCCCCC)CCCCCCCC)CCOC(=O)NCc1ncc[nH]1 [Lipid 132]

>  <value>
97

$$$$
>  <molecule>
CCCCCCCC/C=C\CCCCCCCCN(CCCCCCCCOC(=O)C(CCCCCC)CCCCCCCC)CCOC(=O)NCCN1CCCCC1 (stereo not drawn) [Lipid 219]

>  <value>
93

$$$$
>  <molecule>
CCCCCCCCCC(=O)OCCCCCCCN(CCCCCCCCOC(=O)C(CCCCCC)CCCCCCCC)CCCOC(=O)NCc1ncc[nH]1 (stereo not drawn) [Lipid 360]

>  <value>
85

$$$$
>  <molecule>
CCCCCCCC/C=C\CCCCCCCCN(CCCCCCCCOC(=O)C(CCCCCC)CCCCCCCC)CCOC(=O)NCCN1CCOCC1 (stereo not drawn) [Lipid 215]

>  <value>
96

$$$$
>  <molecule>
CCCCCCCCCC(=O)OCCCCCCCCN(CCCCCCCCOC(=O)CCCCCCCCC)CCOC(=O)NCCN(C)C [Lipid 202]

>  <value>
93

$$$$
>  <molecule>
CCCCCCCCCCCOC(=O)CCCCCN(CCCCCCCC(=O)OC(CCCCCCCC)CCCCCCCC)CCOC(=O)NCCN1CCOCC1 [Lipid 161]

>  <value>
75

$$$$
>  <molecule>
CCCCCCCCC(CCCCCCCC)OC(=O)CCCCCCCN(CCCCCCCCOC(=O)C(CCCCCC)CCCCCCCC)CCCOC(=O)NCCCN(CC)CC (stereo not drawn) [Lipid 346]

>  <value>
95

$$$$
>  <molecule>
CCCCCCCCCCC(CCCCCCCC)COC(=O)CCCCCN(CCCCCC(=O)OCC(CCCCCCCC)CCCCCCCCCC)CCOC(=O)NCCN1CCCCC1 (stereo not drawn) [Lipid 169]

>  <value>
95

$$$$
>  <molecule>
CCCCCCCCC(CCCCCC)C(=O)OCCCCCCCCN(CCCCCCCCOC(=O)C(CCCCCC)CCCCCCCC)CCCOC(=O)NCCN(C)C (stereo not drawn) [Lipid 374]

>  <value>
96

$$$$
>  <molecule>
CCCCC/C=C\C/C=C\CCCCCCCCN(CCCCCCCC/C=C\C/C=C\CCCCC)CCOC(=O)NCCN1CCCCC1 [Lipid 85]

>  <value>
91

$$$$
>  <molecule>
CCCCCCCCC(CCCCCCCC)OC(=O)CCCCCCCN(CCCCCCCCOC(=O)C(CCCCCC)CCCCCCCC)CCCOC(=O)NCCN1CCN(C)CC1 (stereo not drawn) [Lipid 347]

>  <value>
94

$$$$
>  <molecule>
CCCCCCCCC(CCCCCC)C(=O)OCCCCCCCCN(CCCCCCCCOC(=O)C(CCCCCC)CCCCCCCC)CCCOC(=O)NCCN1CCCCC1 (stereo not drawn) [Lipid 380]

>  <value>
92

$$$$
>  <molecule>
CCCCCCCCCCCOC(=O)CCCCCN(CCCCCCCC(=O)OC(CCCCCCCC)CCCCCCCC)CCOC(=O)NCc1ncc[nH]1 [Lipid 159]

>  <value>
84

$$$$
>  <molecule>
CCCCCCCCCC(=O)OCCCCCCCN(CCCCCCCCOC(=O)C(CCCCCC)CCCCCCCC)CCOC(=O)NCCN1CCCC1 (stereo not drawn) [Lipid 195]

>  <value>
94

$$$$
>  <molecule>
CCCCC/C=C\C/C=C\CCCCCCCCN(CCCCCCCC(=O)OC(CCCCCCCC)CCCCCCCC)CCOC(=O)NCCCn1ccnc1 [Lipid 133]

>  <value>
95

$$$$
>  <molecule>
CCCCCCCCC(CCCCCCCC)OC(=O)CCCCCCCN(CCCCCCCCOC(=O)C(CCCCCC)CCCCCCCC)CCCOC(=O)NCCCN(C)C (stereo not drawn) [Lipid 348]

>  <value>
98

$$$$
>  <molecule>
CCCCCCCCC(CCCCCC)C(=O)OCCCCCCCCN(CCCCCCCCOC(=O)C(CCCCCC)CCCCCCCC)CCCNCCN(C)C (stereo not drawn) [Lipid 384]

>  <value>
96

$$$$
>  <molecule>
CCCCC/C=C\C/C=C\CCCCCCCCN(CCCCCC(=O)OCC(CCCCCCCC)CCCCCCCCCC)CCOC(=O)NCCN1CCOCC1 (stereo not drawn) [Lipid 79]

>  <value>
93

$$$$
>  <molecule>
CCCCCCCCCCCOC(=O)CCCCCN(CCCCCCCCOC(=O)C(CCCCCC)CCCCCCCC)CCOC(=O)NCCN1CCN(C)CC1 (stereo not drawn) [Lipid 222]

>  <value>
97

$$$$
>  <molecule>
CCCCCCCCCCC(CCCCCCCC)COC(=O)CCCCCN(CCCCCC(=O)OCC(CCCCCCCC)CCCCCCCCCC)CCCOC(=O)NCCN1CCCC1 (stereo not drawn) [Lipid 369]

>  <value>
97

$$$$
>  <molecule>
CCCCC/C=C\C/C=C\CCCCCCCCN(CCCCCC(=O)OCC(CCCCCCCC)CCCCCCCCCC)CCOC(=O)NCCN(C)C (stereo not drawn) [Lipid 75]

>  <value>
97

$$$$
>  <molecule>
CCCCC/C=C\CCOC(=O)CCCCCN(CCCCCC(=O)OCC(CCCCCCCC)CCCCCCCCCC)CCOC(=O)NCCN1CCCC1 (stereo not drawn) [Lipid 244]

>  <value>
96

$$$$
>  <molecule>
CCCCCCCCC(CCCCCC)C(=O)OCCCCCCCCN(CCCCCCCCOC(=O)C(CCCCCC)CCCCCCCC)CCOC(=O)NCc1ccc(NC(=O)OC(C)(C)C)cc1 (stereo not drawn) [Lipid 8]

>  <value>
84

$$$$
>  <molecule>
CCCCC/C=C\CCOC(=O)CCCCCN(CCCCCCCCOC(=O)C(CCCCCC)CCCCCCCC)CCOC(=O)NCCN1CCCCC1 (stereo not drawn) [Lipid 192]

>  <value>
92

$$$$
>  <molecule>
CCCCC/C=C\C/C=C\CCCCCCCCN(CCCCCC(=O)OCCCCCCCCCCC)CCOC(=O)NCc1ncc[nH]1 [Lipid 90]

>  <value>
87

$$$$
>  <molecule>
CCCCCCCC/C=C\CCCCCCCCN(CCCCCCCCOC(=O)C(CCCCCC)CCCCCCCC)CCOC(=O)NCc1ncc[nH]1 (stereo not drawn) [Lipid 212]

>  <value>
93

$$$$
>  <molecule>
CCCCCCCCCCCOC(=O)CCCCCN(CCCCCC(=O)OCCCCCCCCCCC)CCOC(=O)NCCN1CCCCC1 [Lipid 150]

>  <value>
79

$$$$
